biological target: UP1 (hnRNP A1 RRM1-RRM2) (UniProt P09651 1-196); assay: ITC; N=0.98; ITC: 20 mM Na phosphate pH 6.5, 100 mM NaCl, no DTT, 25 C; EMSA: 100 mM KCl, 20% glycerol, 0.2 mM EDTA, 100 mM Tris pH 8.0, 0.5 mM DTT, 0.5 mM ATP, 20 mM creatine phosphate, 3.2 mM MgCl2, 4 C; footprint: 12 mM Tris-HCl pH 7.5, 48 mM NaCl, 1.2 mM MgCl2, 37 C; settings: protein: recombinant; tags: His tag removed by TEV; single strand
Sequence (P09651 1-196): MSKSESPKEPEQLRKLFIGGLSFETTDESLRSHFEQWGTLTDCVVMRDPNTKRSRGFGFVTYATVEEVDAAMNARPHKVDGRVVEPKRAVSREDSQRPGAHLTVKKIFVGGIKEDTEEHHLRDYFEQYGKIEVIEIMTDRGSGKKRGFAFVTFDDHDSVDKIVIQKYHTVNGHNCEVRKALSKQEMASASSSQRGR
assay readout: pKd
Remember the convention: pKd equals -log10 of concentration in molar.

Q: Complete the entry with pKd for UUUAGAUUAGCA (ssRNA) [12-mer-mut3]
Ans: 8.08
